Data credit: ChEMBL document CHEMBL3621107

- Assay text: Cytotoxicity against human EKVX cells after 48 hrs by SRB assay
- Type: functional
Property measured: GI50

Solved entries (count: 3):
O=C1c2ccccc2C(=O)c2c1cc(SCc1ccccc1)c1nsnc21 : 14.2 µM
O=C1c2ccccc2C(=O)c2c1cc(Sc1cccc(Cl)c1)c1nsnc21 : 16 µM
O=C1c2ccccc2C(=O)c2c1cc(Sc1ccccc1Br)c1nsnc21 : > 50 µM

May I ask what GI50 has been recorded for `O=C1c2ccccc2C(=O)c2c1cc(Sc1ccc(F)cc1F)c1nsnc21` ?
20.8 µM

====

- System: UACC-257
- Assay text: Cytotoxicity against human UACC257 cells assessed as cell growth at 10 uM after 48 hrs by SRB assay relative to control
- Assay type: functional
- Test settings: UACC-257, 48 h, read-out: Activity
Property measured: growth at 10 µM (%)
Numbers only, in %.

Cc1cc(C)cc(Sc2cc3c(c4nsnc24)C(=O)c2ccccc2C3=O)c1 : 116

List growth at 10 µM for every entry below, keeping the order given.
1. O=C1c2ccccc2C(=O)c2c1cc(SCc1ccc(Cl)cc1)c1nsnc21
2. O=C1c2ccccc2C(=O)c2c1cc(Sc1cc(Cl)ccc1Cl)c1nsnc21
3. O=C1c2ccccc2C(=O)c2c1cc(Sc1ccc(Cl)cc1)c1nsnc21
4. COc1cccc(Sc2cc3c(c4nsnc24)C(=O)c2ccccc2C3=O)c1
5. O=C1c2ccccc2C(=O)c2c1cc(SCc1ccccc1)c1nsnc21

78.7
119
95.5
104
58.9

List growth at 10 µM for every entry below, keeping the order given.
1. CC(C)Sc1cc2c(c3nsnc13)C(=O)c1ccccc1C2=O
2. CSc1ccc(Sc2cc3c(c4nsnc24)C(=O)c2ccccc2C3=O)cc1
3. O=C1c2ccccc2C(=O)c2c1cc(Cl)c1nsnc21
4. O=C1c2ccccc2C(=O)c2c1cc(Sc1ccc(F)cc1F)c1nsnc21
5. Cc1ccc(Sc2cc3c(c4nsnc24)C(=O)c2ccccc2C3=O)c(C)c1

[-91.7, 110, 76.1, 43.9, 122]

====

- Test system: OVCAR-3
- Assay text: Cytotoxicity against human OVCAR3 cells assessed as cell growth at 10 uM after 48 hrs by SRB assay relative to control
- Type: functional
- Test settings: OVCAR-3, 48 h, read-out: Activity
Property measured: growth at 10 µM

O=C1c2ccccc2C(=O)c2c1cc(Sc1ccccc1Br)c1nsnc21 : -65.8%
CSc1ccc(Sc2cc3c(c4nsnc24)C(=O)c2ccccc2C3=O)cc1 : 103%
O=C1c2ccccc2C(=O)c2c1cc(Sc1ccccc1)c1nsnc21 : 96.7%
O=C1c2ccccc2C(=O)c2c1cc(Sc1ccc(F)cc1F)c1nsnc21 : -52.3%
CC(C)Sc1cc2c(c3nsnc13)C(=O)c1ccccc1C2=O : -60.3%

May I ask what growth at 10 µM has been recorded for `Cc1cc(C)cc(Sc2cc3c(c4nsnc24)C(=O)c2ccccc2C3=O)c1` ?
118%

====

- System: HOP-62
- Assay text: Cytotoxicity against human HOP62 cells assessed as cell growth at 10 uM after 48 hrs by SRB assay relative to control
- Assay type: functional
- Test settings: HOP-62, 48 h, read-out: Activity
Can you tell me growth at 10 µM for the items I'm about to list?

CSc1ccc(Sc2cc3c(c4nsnc24)C(=O)c2ccccc2C3=O)cc1 : 102%
Cc1ccccc1Sc1cc2c(c3nsnc13)C(=O)c1ccccc1C2=O : 59.5%
O=C1c2ccccc2C(=O)c2c1ccc1nsnc21 : -100%

List growth at 10 µM for every entry below, keeping the order given.
1. O=C1c2ccccc2C(=O)c2c1cc(Sc1ccc(F)cc1F)c1nsnc21
2. Cc1cc(C)cc(Sc2cc3c(c4nsnc24)C(=O)c2ccccc2C3=O)c1

["58.5%", "91%"]

List growth at 10 µM for every entry below, keeping the order given.
1. O=C1c2ccccc2C(=O)c2c1cc(Sc1cccc(Cl)c1)c1nsnc21
2. Cc1ccc(Sc2cc3c(c4nsnc24)C(=O)c2ccccc2C3=O)c(C)c1
3. Cc1cccc(C)c1Sc1cc2c(c3nsnc13)C(=O)c1ccccc1C2=O

["42.1%", "79.3%", "90%"]

====

Can you tell me GI50 for the items I'm about to list?
- Test system: MOLT-4
- Assay text: Cytotoxicity against human MOLT4 cells after 48 hrs by SRB assay
- Assay type: functional
- Test settings: MOLT-4, 48 h
Answers are plain numbers, in nM.

Solved entries (count: 2):
O=C1c2ccccc2C(=O)c2c1cc(Sc1ccccc1Br)c1nsnc21 : 7210
O=C1c2ccccc2C(=O)c2c1cc(SCc1ccccc1)c1nsnc21 : 1200

List GI50 for every entry below, keeping the order given.
1. CC(C)Sc1cc2c(c3nsnc13)C(=O)c1ccccc1C2=O
2. O=C1c2ccccc2C(=O)c2c1cc(Sc1cccc(Cl)c1)c1nsnc21
3. O=C1c2ccccc2C(=O)c2c1cc(Sc1ccc(F)cc1F)c1nsnc21

180
640
1110

====

- System: MDA-MB-435
- Assay text: Cytotoxicity against human MDA-MB-435 cells after 48 hrs by SRB assay
- Assay type: functional
- Test settings: MDA-MB-435, 48 h
Could you mark each record y if its TGI falls strictly under 4 µM, and n if it equals or exceeds it?

Some solved cases for reference:
O=C1c2ccccc2C(=O)c2c1cc(Sc1cccc(Cl)c1)c1nsnc21 : y
O=C1c2ccccc2C(=O)c2c1cc(Sc1ccc(F)cc1F)c1nsnc21 : y
O=C1c2ccccc2C(=O)c2c1cc(SCc1ccccc1)c1nsnc21 : n
O=C1c2ccccc2C(=O)c2c1cc(Sc1ccccc1Br)c1nsnc21 : n

Next, consider the following compound.
Does this compound meet the criterion TGI < 4 µM? `CC(C)Sc1cc2c(c3nsnc13)C(=O)c1ccccc1C2=O`
y

====

- Test system: SK-OV-3
- Assay text: Cytotoxicity against human SKOV3 cells assessed as cell growth at 10 uM after 48 hrs by SRB assay relative to control
- Assay type: functional
- Test settings: SK-OV-3, 48 h, read-out: Activity
Can you tell me growth at 10 µM for the items I'm about to list?

O=C1c2ccccc2C(=O)c2c1cc(Sc1ccccc1)c1nsnc21 : 106%
O=C1c2ccccc2C(=O)c2c1ccc1nsnc21 : 101%

List growth at 10 µM for every entry below, keeping the order given.
1. O=C1c2ccccc2C(=O)c2c1cc(Cl)c1nsnc21
2. CSc1ccc(Sc2cc3c(c4nsnc24)C(=O)c2ccccc2C3=O)cc1
3. O=C1c2ccccc2C(=O)c2c1cc(Sc1cccc(Cl)c1)c1nsnc21
4. Cc1ccc(Sc2cc3c(c4nsnc24)C(=O)c2ccccc2C3=O)c(C)c1
5. O=C1c2ccccc2C(=O)c2c1cc(Sc1cc(Cl)ccc1Cl)c1nsnc21
6. O=C1c2ccccc2C(=O)c2c1cc(Sc1ccccc1Br)c1nsnc21

109%
102%
95.4%
110%
84.1%
66.7%

List growth at 10 µM for every entry below, keeping the order given.
1. CCOc1cccc(Sc2cc3c(c4nsnc24)C(=O)c2ccccc2C3=O)c1
2. O=C1c2ccccc2C(=O)c2c1cc(Sc1ccc(Cl)cc1)c1nsnc21
3. Cc1ccccc1Sc1cc2c(c3nsnc13)C(=O)c1ccccc1C2=O
4. COc1ccc(Sc2cc3c(c4nsnc24)C(=O)c2ccccc2C3=O)cc1
5. O=C1c2ccccc2C(=O)c2c1cc(SCc1ccccc1)c1nsnc21
6. O=C1c2ccccc2C(=O)c2c1cc(Sc1ccc(F)cc1F)c1nsnc21
7. COc1cccc(Sc2cc3c(c4nsnc24)C(=O)c2ccccc2C3=O)c1

1. 99.4%
2. 109%
3. 93.8%
4. 106%
5. 80.3%
6. 92.6%
7. 110%

May I ask what growth at 10 µM has been recorded for `Cc1cc(C)cc(Sc2cc3c(c4nsnc24)C(=O)c2ccccc2C3=O)c1` ?
97.5%

====

- Test system: K562
- Assay text: Cytotoxicity against human K562 cells assessed as cell growth at 10 uM after 48 hrs by SRB assay relative to control
- Type: functional
- Test settings: K562, 48 h, read-out: Activity
Can you tell me growth at 10 µM for the items I'm about to list?
I'd appreciate it if you wrote the number followed by its unit.

Solved entries (count: 6):
O=C1c2ccccc2C(=O)c2c1cc(SCc1ccccc1)c1nsnc21 : 10.5%
O=C1c2ccccc2C(=O)c2c1cc(Sc1ccccc1)c1nsnc21 : 52%
COc1ccc(Sc2cc3c(c4nsnc24)C(=O)c2ccccc2C3=O)cc1 : 92%
O=C1c2ccccc2C(=O)c2c1cc(Cl)c1nsnc21 : 2.44%
COc1cccc(Sc2cc3c(c4nsnc24)C(=O)c2ccccc2C3=O)c1 : 38.5%
Cc1cccc(C)c1Sc1cc2c(c3nsnc13)C(=O)c1ccccc1C2=O : 43.1%

List growth at 10 µM for every entry below, keeping the order given.
1. CC(C)Sc1cc2c(c3nsnc13)C(=O)c1ccccc1C2=O
2. O=C1c2ccccc2C(=O)c2c1cc(Sc1ccc(Cl)cc1)c1nsnc21
3. O=C1c2ccccc2C(=O)c2c1cc(Sc1ccc(F)cc1F)c1nsnc21
4. O=C1c2ccccc2C(=O)c2c1cc(Sc1cc(Cl)ccc1Cl)c1nsnc21
5. O=C1c2ccccc2C(=O)c2c1ccc1nsnc21
6. O=C1c2ccccc2C(=O)c2c1cc(SCc1ccc(Cl)cc1)c1nsnc21
7. Cc1ccccc1Sc1cc2c(c3nsnc13)C(=O)c1ccccc1C2=O

["-26.2%", "94.9%", "-21.1%", "47.8%", "49.6%", "67.5%", "32.3%"]
